test: yeast display, Sf9 membrane polyspecificity reagent, FACS + sequencing; frameworks hold sequencing errors
value-kind: polyreactivity (PSR sort gate)

// worked examples, polyreactivity (PSR sort gate) included
| construct-sequence | polyreactivity (PSR sort gate) |
| --- | --- |
| QVQLVESGGGLVQAGGSLRLSCAASGLIFVHYAMGWYRQAPGKERELVAAISAGGGSTYYADSVKGRFTISRDNAKNTVYLQMNSLKPEDTAVYYCNARVVNYFRPRTGAREYDYWGQGTQVTVSS | high polyreactivity |
| QVQIVESGGGLVQAGGSLRLSCAASGSTFTRYAMGWYRQAPGKERELVAAISRTGGSRTYYADSVNGRFTISRDNAKNTVYLQMNCLKPEDTAVYYCAKGYWRYLGFLYFFPARDYWGQGTQVTVSS | high polyreactivity |
| QVQLVESGGGLVQAGGSLRLSCAASGRTFAPNAMGWYRQAPGKEREMVAAISWSGTSTYYADSVKGRFTISRDNAKNTVYLQMNSLKPEDTAVYYCAADLEGSVGSPLTYDYWGQGTQVTVSS | low polyreactivity |
| QVQLVESGGGLVQAGGSLRLSCAASGFTLGSKVMGWYRQAHGKERELVAGISQSGGRTFYADSVKGRFTISRDNAKNTVYLQMNSLKPEDTAVYYCAAGYYPYWGQGTLVTVSS | low polyreactivity |

Switching to the query record.
// fetch polyreactivity (PSR sort gate) given entry QVQLVESGGGLVQAGGSLRLSCAASGFTFDAYTMGWYRQAPGKERELVAAINWSGDTTYYADSVKGRFTISRDNAKNTVYFQMNSLKPEDTAVYYCAAVWWIYGVWFDYWGQGTQVTVSS
high polyreactivity

FYI, the data here is from the nanobody polyreactivity screen of Harvey et al. (2022).
